All values here come from paper PMC10138554.

Test system: C. albicans ATCC 90029
test-summary: Anti-biofilm activity assay, purple violet microtiter method
Format: cell-based, Candida albicans
conditions-used: C. albicans ATCC 90029 biofilm
Protocol: The inhibitory activity of the obtained compounds has been assessed on five microbial strains, respectively: E. coli ATCC 25922, P. aeruginosa ATCC 27853, S. aureus ATCC 25923, E. faecalis ATCC 29212 and C. albicans ATCC 90029, in a planktonic and adherent growth state. The anti-biofilm activity assay was performed by the purple violet microtiter method, as previously described, allowing us to determine the minimal biofilm inhibitory concentration (MBEC). […]
Each item that follows carries a reported minimum biofilm inhibitory concentration (MBIC).
Please state the figure in mg/mL; there is no need to write the unit.

A selection of reference data follows.
[[record]]
chemical_smiles = "O=C(Nc1ccc(Cl)c(Cl)c1)ON=C1c2ccccc2-c2ccccc21"
target_under_test = "C. albicans ATCC 90029"
experimental_result = 0.312

[[record]]
chemical_smiles = "Cc1cccc(NC(=O)ON=C2c3ccccc3-c3ccccc32)c1"
target_under_test = "C. albicans ATCC 90029"
experimental_result = 0.078

[[record]]
chemical_smiles = "O=C(Nc1ccccc1)ON=C1c2ccccc2-c2ccccc21"
target_under_test = "C. albicans ATCC 90029"
experimental_result = 0.312


As a next step, examine the molecule that follows.
Prompt: For the molecule O=C(Nc1cccc(Cl)c1)ON=C1c2ccccc2-c2ccccc21 , give its reported minimum biofilm inhibitory concentration (MBIC).
Response: 0.312
